Parameter Replicate_2 (LOPAC screen with protease): see the listing below.
- test_target: SARS-CoV-2 3CLpro (Severe acute respiratory syndrome coronavirus 2, UniProt P0DTD1)
- assay_remarks: biochemical
- Format: biochemical
- experimental_conditions: sheet LOPAC_screen_w_protease; primary screen at 5 µM; replicate 2
Respond using a number only.

// solved cases for Replicate_2 (LOPAC screen with protease) follow
[
  {
    "compound": "Br.C=CCN1CCc2c(cc(O)c(O)c2Br)[C@@H](c2ccccc2)C1 [R(+)-6-Bromo-APB hydrobromide]",
    "test_target": "SARS-CoV-2 3CLpro (Severe acute respiratory syndrome coronavirus 2, UniProt P0DTD1)",
    "measured": 31.3855
  },
  {
    "compound": "Cc1c(OCC(F)(F)F)ccnc1C[S+]([O-])c1nc2ccccc2[nH]1 (centres unmarked) [Lansoprazole, reference compound]",
    "test_target": "SARS-CoV-2 3CLpro (Severe acute respiratory syndrome coronavirus 2, UniProt P0DTD1)",
    "measured": 34.9288
  },
  {
    "compound": "C[Se]C[C@H](N)C(=O)O.Cl [Se-(methyl)selenocysteine hydrochloride]",
    "test_target": "SARS-CoV-2 3CLpro (Severe acute respiratory syndrome coronavirus 2, UniProt P0DTD1)",
    "measured": 11.0537
  }
]

// CNCCNS(=O)(=O)c1cccc2cnccc12.Cl.Cl [H-8 dihydrochloride] : Replicate_2 (LOPAC screen with protease) value = 11.1038

Data point: Cc1cccc(C)c1OCC(N)C(C)C.I (stereo not drawn) [R(-)-Me5] ; Replicate_2 (LOPAC screen with protease) = 9.541

---

Replicate_2 (LOPAC_screen_w_protease) for assorted compounds
- test_target: SARS-CoV-2 3CLpro (Severe acute respiratory syndrome coronavirus 2)
- assay_remarks: biochemical
- Assay type: biochemical
- experimental_conditions: LOPAC1280 primary screen with protease, 5 µM compound, replicate 2

Given item Cl.NC1C=CC=C(C(=O)O)C1 (stereo not shown) [Gabaculine hydrochloride] , the value recorded as its Replicate_2 (LOPAC_screen_w_protease) is 2.6

GET /value?item= NC(=S)c1ccc[n+]([C@@H]2O[C@@H](COP(=O)([O-])OP(=O)(O)OC[C@H]3O[C@@H](n4cnc5c(N)ncnc54)C(OP(=O)([O-])O)[C@H]3O)C(O)C2O)c1.[Na+] (stereo partly shown) [Thio-NADP sodium] &field=Replicate_2 (LOPAC_screen_w_protease) returns 0.2062

Entry under test: CNCC(O)c1ccc(O)cc1 (racemic) [(±)-Synephrine] . Its Replicate_2 (LOPAC_screen_w_protease) was 1.765

Per the record, Cl.NNC(N)=O [Semicarbazide hydrochloride] has Replicate_2 (LOPAC_screen_w_protease) of 1.701

---

- test_target: SARS-CoV-2 3CLpro (Severe acute respiratory syndrome coronavirus 2, UniProt P0DTD1)
- assay_remarks: biochemical
- Format: biochemical
- experimental_conditions: 4 h, sheet LOPAC_screen_w_protease; primary screen with protease, compound at 5 µM; replicate 1; read-out: Replicate_1
Where a name gives a salt, the structure may show the parent alone.
measured_property: inhibition at 5 µM (%)
All answers are understood in %, so give the number only.

[
  {
    "compound": "Fc1ccc(C(c2ccc(F)cc2)N2CCN(C/C=C/c3ccccc3)CC2)cc1 [Flunarizine dihydrochloride]",
    "measured_property": "inhibition at 5 µM",
    "measured": 3.4
  }
]

Noted for CCOC(=O)C(C)(C)Oc1ccc(Cl)cc1 [Clofibrate] : its inhibition at 5 µM reads 1.49

What the record says about C[N+]1(C)CCOC(O)(c2ccc(-c3ccc(C4(O)C[N+](C)(C)CCO4)cc3)cc2)C1 (stereo not shown) [Hemicholinium-3] : inhibition at 5 µM is 4.37

The reported inhibition at 5 µM of the compound OC[C@H]1NC[C@H](O)[C@@H](O)[C@@H]1O [1-Deoxynojirimycin hydrochloride] was 4.02

---

- test_target: UniProt P0DTD1
- assay_remarks: biochemical
- Type: biochemical
- experimental_conditions: 4 h, read-out: Replicate_1 (LOPAC screen with protease)
Decision: inhibition at 5 µM compared against 40%; not below it gives MET, below it gives NOT MET.

Before answering, review these 4 worked examples.
[
  {
    "molecule": "N[C@@H](CCC(=O)N[C@@H](CSN=O)C(=O)NCC(=O)O)C(=O)O [S-Nitrosoglutathione, reference compound]",
    "label_class": "MET"
  },
  {
    "molecule": "O=c1c2ccccc2[se]n1-c1ccccc1 [Ebselen, reference compound]",
    "label_class": "MET"
  },
  {
    "molecule": "N[C@@H](C(=O)N[C@@H]1C(=O)N2C(C(=O)O)=C(Cl)CS[C@H]12)c1ccccc1",
    "label_class": "NOT MET"
  },
  {
    "molecule": "O=C(O)Cc1ccc(O)c(O)c1 [3,4-Dihydroxyphenylacetic acid]",
    "label_class": "MET"
  }
]

Let's switch to this molecule now.
Tell me whether inhibition at 5 µM is at least 40% here: CSc1ccc(C(=O)c2[nH]c(=O)[nH]c2C)cc1
NOT MET

---

- test_target: SARS-CoV-2 3CLpro (Severe acute respiratory syndrome coronavirus 2, UniProt P0DTD1)
- assay_remarks: biochemical
- Format: biochemical
- experimental_conditions: 4 h, sheet LOPAC_screen_w_protease; LOPAC1280 primary screen at 5 µM, with protease; replicate 2; read-out: Replicate_2
Counter-ions that a name gives are not always drawn.
measured_property: inhibition at 5 µM (%)
Quick reminder: number only, in %, skip the unit.

// solved cases for inhibition at 5 µM follow
[
  {
    "molecule": "NCCc1c[nH]c2ccccc12 [Tryptamine hydrochloride]",
    "inhibition at 5 µM [%]": -0.0349
  },
  {
    "molecule": "O=C1NCN(c2ccccc2)C12CCN(CC1COc3ccccc3O1)CC2 (centres unmarked)",
    "inhibition at 5 µM [%]": -0.819
  },
  {
    "molecule": "NC(=O)c1ccccc1 [Benzamide]",
    "inhibition at 5 µM [%]": 0.297
  },
  {
    "molecule": "C/C=C(/C)C(=O)O[C@H]1C(C)=C2[C@H]([C@@H]1OC(=O)CCCCCCC)[C@@](C)(OC(C)=O)C[C@H](OC(=O)CCC)[C@@]1(O)[C@H]2OC(=O)[C@@]1(C)O",
    "inhibition at 5 µM [%]": -1.32
  },
  {
    "molecule": "COc1ccc(C(=O)NCc2cccnc2)cc1C(=O)NCc1cccnc1 [Picotamide]",
    "inhibition at 5 µM [%]": -0.597
  }
]

The molecule identified as CN/C(=N\c1ccc(C2=NNC(=O)CC2C)cc1)NC#N (centres unmarked) registered its inhibition at 5 µM at 0.284

Entry under test: Cc1nc2ccccn2c(=O)c1CCN1CCC(C(=O)c2ccc(F)cc2)CC1 . Its inhibition at 5 µM was 0.525

inhibition at 5 µM reading for CN1C(=O)CCS(=O)(=O)C1c1ccc(Cl)cc1 (centres unmarked) : -1.22

So, CCOC(=O)N1CCC(=C2c3ccc(Cl)cc3CCc3cccnc32)CC1 ? Its inhibition at 5 µM was 1.65

Value of measured inhibition at 5 µM for the entry O=c1c2ccccc2[nH]c(=S)n1CCN1CCC(=C(c2ccc(F)cc2)c2ccc(F)cc2)CC1 : -2.61

For O=C(c1ccc(F)cc1)C1CCN(CCn2c(=O)[nH]c3ccccc3c2=O)CC1 [Ketanserin tartrate] the molecule record lists inhibition at 5 µM as -3.04

GET /value?item= CN(C)CCC=C1c2ccccc2CCc2ccccc21 [Amitriptyline hydrochloride] &field=inhibition at 5 µM returns 1.05

O=C(O)CCCCCCCC(=O)O yielded inhibition at 5 µM of -0.0221

Record summary for CNCCC(Oc1ccc(C(F)(F)F)cc1)c1ccccc1 (centres unmarked) [Fluoxetine hydrochloride] : reported inhibition at 5 µM = -1.12

// recorded inhibition at 5 µM for NC(N)=NCCCCN=C(N)N [Arcaine sulfate] : -0.37

Reported inhibition at 5 µM of O=C(NCCNCC(O)COc1ccc(O)cc1)N1CCOCC1 (centres unmarked) [Xamoterol hemifumarate] : 0.0143

Please fill in: inhibition at 5 µM reported for O=C(O)c1cccnc1C(=O)O = 1.39

Recorded inhibition at 5 µM (molecule CCC1(C2=NCCN2)Cc2ccccc2O1 (centres unmarked) [Efaroxan hydrochloride] ): -0.954

// inhibition at 5 µM value for O=c1c2ccccc2nc2n1CCc1c-2[nH]c2ccccc12 : -0.348

The molecule N=C(N)NCCC[C@H](N)C(=O)O showed inhibition at 5 µM equal to -1.52

---

- test_target: SARS-CoV-2 3CLpro (Severe acute respiratory syndrome coronavirus 2)
- assay_remarks: biochemical
- Assay type: biochemical
- experimental_conditions: 4 h, sheet LOPAC_screen_w_protease; primary screen of LOPAC1280 at 5 µM with protease; mean of the two replicates; read-out: mean
Where a name gives a salt, the structure may show the parent alone.
measured_property: inhibition at 5 µM
Answer with the figure and its unit, nothing else.

Solved cases (5 shown):
[
  {
    "compound": "NC(=O)CN1CC(O)CC1=O (stereo not drawn) [Oxiracetam]",
    "inhibition at 5 µM": "3.68%"
  },
  {
    "compound": "CCCC(CCC)C(=O)O [Valproic acid sodium]",
    "inhibition at 5 µM": "3.18%"
  },
  {
    "compound": "CC1=C[C@@H]2c3cccc4[nH]cc(c34)C[C@H]2N(C)C1 [Agroclavine]",
    "inhibition at 5 µM": "3.47%"
  },
  {
    "compound": "CCn1cc(C(=O)O)c(=O)c2cc3c(cc21)OCO3 [Oxolinic acid]",
    "inhibition at 5 µM": "3.24%"
  },
  {
    "compound": "NC(=O)CN1CCCC1=O [Piracetam]",
    "inhibition at 5 µM": "3.49%"
  }
]

Recorded result, CNC(=O)Oc1ccc2c(c1)[C@]1(C)CCN(C)[C@@H]1N2C [(-)-Physostigmine] , inhibition at 5 µM: 3.4%

Documented inhibition at 5 µM of CCCNCC(O)COc1ccccc1C(=O)CCc1ccccc1 (stereo not drawn) [Propafenone hydrochloride] : 3.27%

Measured inhibition at 5 µM, CC(=O)O[C@H]1C[C@@H]2CC[C@@H]3[C@H](CC[C@@]4(C)[C@H]3C[C@H]([N+]3(C)CCCCC3)[C@@H]4OC(C)=O)[C@@]2(C)C[C@@H]1[N+]1(C)CCCCC1 [Pancuronium bromide] : 3.86%

Input Cc1ccc(=O)n(-c2ccccc2)c1 [Pirfenidone] . Output inhibition at 5 µM: 4.02%

This collection of values is drawn from paper PMC7587356.
